All figures here come from patent US20150094294A1.

assay: in vitro; type: cell-based
assay_endpoint: EC50 (µg/mL)

{"smiles_data": "O=C(Nc1ccc(O[C@H]2CCNC2)cc1)c1cc(C(=O)Nc2ccc(O[C@H]3CCNC3)cc2)ncn1", "EC50 (µg/mL)": 29}
{"smiles_data": "N=C(N)N1CCN(c2ccc(-c3ccc(-c4ccc(N5CCN(C(=N)N)CC5)nc4)s3)cn2)CC1", "EC50 (µg/mL)": 36}

###

system: P. falciparum 3D7 (chloroquine-sensitive); assay: Anti-malarial activity, P. falciparum 3D7 culture, 72 hour, DNA content by flow cytometry; format: cell-based; settings: synchronized ring-stage parasites
assay_endpoint: IC50 (nM)

{"smiles_data": "NCCSc1nc(-c2cccc(CCN)c2)cc(-c2cccc(CCN)c2)n1", "IC50 (nM)": 1550}
{"smiles_data": "Cn1c(-c2cccc(CCN)c2)cnc1-c1cccc(CCN)c1", "IC50 (nM)": 541}
{"smiles_data": "N=C(N)NCCc1cccc(NC(=O)c2cc(C(=O)Nc3cccc(CCNC(=N)N)c3)nc(SCCN)n2)c1", "IC50 (nM)": 560}

A = N=C(N)NCCc1cccc(-c2cnc(-c3cccc(CCNC(=N)N)c3)s2)c1
B = CCN(CC)CCN(CCN)c1ccc(C(F)(F)F)cc1NC(=O)Nc1cc(C(F)(F)F)ccc1N(CCN)CCN(CC)CC
C = CC(C)(C)c1cc(NC(=O)c2cccc(C#N)c2)c(SCCN)c(NC(=O)c2cc(C(=O)Nc3cc(C(C)(C)C)cc(NC(=O)c4cccc(C#N)c4)c3SCCN)ncn2)c1
Exercise: Hello, I need these entries ordered by IC50, highest reading first. Thanks! Answer format: the labels, in the requested order.
Key: B, A, C
(B: 660 nM, A: 58 nM, C: 5 nM)

###

assay: Cytotoxicity against 3T3 cells; assay type: cell-based; conditions: mouse, 3T3 cells; read-out: Cytotoxicity 3T3 EC50
assay_endpoint: EC50 (µM)
Value expressed in µM; do not type the unit.

Solved cases below.
{"smiles_data": "N=C(N)NCCCCC(=O)Nc1cc(C(F)(F)F)cc(NC(=O)c2cc(C(=O)Nc3cc(C(F)(F)F)cc(NC(=O)CCCCNC(=N)N)c3SCCNC(=O)CN)ncn2)c1SCCNC(=O)CN", "EC50 (µM)": 66}
{"smiles_data": "N=C(N)NCCCOc1cc(OCCCNC(=N)N)c(-c2ccc(C(F)(F)F)cc2)cc1-c1ccc(C(F)(F)F)cc1", "EC50 (µM)": 27}
{"smiles_data": "c1cc(-c2ccc(N3CCNCC3)nc2)cc(-c2cccc(-c3ccc(N4CCNCC4)nc3)c2)c1", "EC50 (µM)": 57}
{"smiles_data": "N=C(N)NCCCCOc1cc(OCCCCNC(=N)N)c(C(F)(F)F)cc1NC(=O)Nc1cc(C(F)(F)F)c(OCCCCNC(=N)N)cc1OCCCCNC(=N)N", "EC50 (µM)": 121}
{"smiles_data": "NCCCOc1cc(OCCCN)cc(-c2ccc3c(c2)c2cc(-c4cc(OCCCN)cc(OCCCN)c4)ccc2n3CCCN)c1", "EC50 (µM)": 436}
{"smiles_data": "N=C(N)NCCCCC(=O)Nc1ccc(-c2nnc(-c3ccc(NC(=O)CCCCNC(=N)N)cc3)o2)cc1", "EC50 (µM)": 322}

Exercise: Which EC50 is listed for N=C(N)NCCCc1cccc(-c2cncc(-c3cccc(CCCNC(=N)N)c3)c2)c1 ?
Key: 323
